assay: Toxicity liver stage against HepG2, at 10uM; assay type: cell-based; design: test concentration 10 uM, cell line HepG2-A16-CD81EGFP; conditions: human, HepG2-A16-CD81EGFP cells; read-out: INHIBITION
Please respond with reported cytotoxicity at 10 µM for every item in the list.
Numbers only, in %.

[
  {
    "COMPOUND": "CC(C)CCn1ccc(NC(=O)N2CCCC2C(C)(C)O)n1 (stereo unspecified)",
    "RECORDED VALUE": 5.07
  },
  {
    "COMPOUND": "CCN(C(C)=O)c1nc(CN2CCCC2Cn2cncn2)cs1 (stereo unspecified)",
    "RECORDED VALUE": -5.15
  },
  {
    "COMPOUND": "Cc1ccc(-n2c(O)cc(C)c(C#N)c2=O)c(C)c1",
    "RECORDED VALUE": 7.75
  },
  {
    "COMPOUND": "O=C(C[C@@H]1COC[C@H]2CN(Cc3ccc(F)cc3)C[C@@H]12)N1CCCC1",
    "RECORDED VALUE": 4.09
  },
  {
    "COMPOUND": "COc1ccc(C(=O)N2C[C@@H](O)[C@H](NCc3ncccc3C)C2)cc1",
    "RECORDED VALUE": 0.225
  }
]

Quick batch: cytotoxicity at 10 µM for everything below.
1. CC(C)c1sc(Cl)nc1C(=O)NCc1ccncc1
2. COC1CCN(c2ccc(NC(=O)Cn3cccn3)cc2)CC1
3. O=C(NCc1ccco1)[C@H]1C[C@H]2OCC[C@H]2N(C(=O)c2ccnnc2)C1
4. O=C(c1ncccn1)N1C[C@@H]2COC[C@]2(c2nnc(C3CC3)o2)C1

1. 0.649
2. 2.04
3. -10.3
4. -1.31

Quick batch: cytotoxicity at 10 µM for everything below.
1. O=C1N(Cc2ccccn2)C[C@H]2CN(S(=O)(=O)c3ccccc3)CCN12
2. N#Cc1cccc(C(=O)N2CCc3c(COCC4CC4)cncc3C2)c1
3. COC(=O)C1=NN2C(=NS(=O)(=O)c3ccccc32)N1
4. CN(C)C[C@H]1CC[C@@H](Cc2ccc3c(cnn3C)c2)O1
5. Cc1cccc(CN2CC3(CCN(C4CCOC4)CC3)OCC2=O)n1 (stereo unspecified)

4.97
8.25
-8.57
-1.07
-2.92

Quick batch: cytotoxicity at 10 µM for everything below.
1. Cc1cnn(C(C)C2CC2)c1NC(=O)c1cnccn1 (stereo unspecified)
2. Cc1cnn(CC(=O)N(CC2CN(C)CCO2)c2nccs2)c1 (stereo unspecified)
3. Cc1nccn1CCCn1cncc1-c1ccc2c(c1)CC(C)N2C (stereo unspecified)
4. CSCc1noc(CNC(=O)C2CCN(C3CCCCC3)CC2)n1

-5.39
1.79
0.94
8.45
